- SYSTEM UNDER TEST: Focal adhesion kinase 1 (Homo sapiens) (UniProt Q05397)
- Sequence (Q05397 whole entry, looked up): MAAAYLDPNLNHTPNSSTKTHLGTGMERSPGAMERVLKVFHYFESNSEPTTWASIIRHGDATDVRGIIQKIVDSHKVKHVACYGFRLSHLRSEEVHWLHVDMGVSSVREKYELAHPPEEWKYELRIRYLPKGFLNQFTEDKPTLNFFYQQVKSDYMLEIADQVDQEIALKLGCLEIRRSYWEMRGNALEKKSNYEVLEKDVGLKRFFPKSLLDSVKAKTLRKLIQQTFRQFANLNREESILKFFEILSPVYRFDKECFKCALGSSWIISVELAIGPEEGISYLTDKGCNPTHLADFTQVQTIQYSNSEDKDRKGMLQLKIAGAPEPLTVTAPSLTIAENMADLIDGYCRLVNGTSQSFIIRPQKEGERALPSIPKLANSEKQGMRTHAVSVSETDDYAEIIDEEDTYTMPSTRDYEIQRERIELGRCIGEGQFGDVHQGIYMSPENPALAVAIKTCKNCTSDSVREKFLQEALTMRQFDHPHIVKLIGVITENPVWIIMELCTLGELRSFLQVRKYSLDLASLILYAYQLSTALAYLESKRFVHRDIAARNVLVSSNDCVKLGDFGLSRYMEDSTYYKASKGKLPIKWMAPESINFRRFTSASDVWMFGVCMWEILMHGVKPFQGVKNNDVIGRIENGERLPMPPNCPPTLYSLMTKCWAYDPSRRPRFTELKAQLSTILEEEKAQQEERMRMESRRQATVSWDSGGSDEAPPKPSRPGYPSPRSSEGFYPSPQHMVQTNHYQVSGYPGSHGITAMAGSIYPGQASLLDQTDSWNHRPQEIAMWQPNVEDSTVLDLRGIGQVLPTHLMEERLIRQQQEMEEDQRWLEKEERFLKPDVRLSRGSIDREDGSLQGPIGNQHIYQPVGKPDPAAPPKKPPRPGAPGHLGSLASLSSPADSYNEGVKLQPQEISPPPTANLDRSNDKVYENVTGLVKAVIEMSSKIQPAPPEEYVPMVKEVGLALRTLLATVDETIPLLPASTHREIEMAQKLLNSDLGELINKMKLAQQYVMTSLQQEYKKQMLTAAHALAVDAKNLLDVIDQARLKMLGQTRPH
- TEST DETAILS: small-molecule microarray binders of FAK, primary screen, biochemical, 635/667 nm fluorescence, BSA, DTT (AID 1130);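 further: composite of spot emission at 667 nm and signal to noise over triplicate slides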
- EXPERIMENTAL CONTEXT: PTK2 binding, 635 nm fluorescence, higher = more signal
READOUT NAME: composite z-score
No unit in the answer, only the number.

Consider the worked cases shown below.
Exam item: Record request: composite z-score value, item COc1ccc(/C=C/C(=O)c2cccc(OCC(=O)OC(C)(C)C)c2)cc1
Marked response: 0.168

Exam item: Quick check: composite z-score of COc1ccc([Si](C)(C)[C@@H]2[C@@H](CCn3cc([C@H](O)c4ccccc4)nn3)O[C@]3(C(=O)N(C)c4c(Br)cc(C)cc43)[C@H]2C)cc1 ?
Marked response: -0.501

Further cases:
Exam item: For the compound CC(C)C(=C=CC[C@@H](O)c1ccc(CO)o1)CCO , what composite z-score is on record?
Marked response: -0.7

Exam item: What value of composite z-score has been recorded for this entry: COC(=O)c1c(CC[C@@H](CO)NC(=O)Nc2ccc(OC)cc2)oc(C(=O)Cc2ccccc2)c1C(=O)OC
Marked response: -0.181

Exam item: For the compound CC(C)CCC[C@@H](C)[C@H]1CC[C@@]2(C)C3=C(CC[C@]12C)[C@@]1(C)CC[C@H](OC(=O)CCl)C(C)(C)C1CC3 (some centres not stated) , what composite z-score is on record?
Marked response: 0.272

Exam item: Param item = COCCOC(=O)N1C(=O)[C@@]2(c3cc(C#CC4(O)CCCCCC4)ccc31)[C@H](c1ccc(O)cc1)N1[C@H](c3ccccc3)[C@H](c3ccccc3)OC(=O)[C@H]1[C@@H]2C(N)=O ; retrieve measured composite z-score.
Marked response: 1.36

Exam item: Fill blank: measured composite z-score of the compound CC1CC/C=C\[C@H]2OC34C=CCN(C(C)C)C(=O)[C@H]3N(C(CO)C(C)C)C(=O)[C@@H]4C2C(=O)O1 (some centres not stated) is ____.
Marked response: 1

Exam item: Request the reported composite z-score associated with CC(C)C[C@@H]1NC(=O)[C@H]2C[C@@H](C(=O)NCCCC[N+](C)(C)C)[C@@H](c3cccc(OCCO)c3)N2C1=O
Marked response: -0.153

Exam item: Entry NCCCCCCNC(=O)[C@@H]1C[C@@H]2C(=O)N[C@@H](Cc3ccccc3)C(=O)N2[C@@H]1c1ccc(O)cc1 : reported composite z-score = ?
Marked response: 0.332

Exam item: # composite z-score lookup, item C=CCNC(=O)[C@H]1[C@@H]2C(=O)O[C@@H](c3ccccc3)[C@@H](c3ccccc3)N2[C@@H](c2ccc(OCCO)cc2)[C@]12C(=O)Nc1ccc(C#CCCO)cc12
Marked response: 0.418

Exam item: Endpoint output: composite z-score of CC(C)C[C@@H]1NC(=O)[C@@]23C(=O)N[C@@H](Cc4ccccc4)C2[C@H](C)[C@@]2(C)O[C@H]2C3/C=C/C/C=C\CNC(=O)[C@H](Cc2ccccc2)NC1=O (some centres not stated) . Value?
Marked response: -0.0582

Exam item: Requested read-out: composite z-score. Entry: C=CCN1C(=O)[C@@]2(O[C@@H](CCn3cc(CCO)nn3)[C@H]([Si](C)(C)c3ccc(OC)cc3)[C@H]2C)c2cc(N3C(=O)c4cccc5cccc3c45)ccc21
Marked response: 0.608

Exam item: Please give the measured composite z-score for this compound: Cc1ccc(N2C(=O)c3ccccc3[C@](C)(C(=O)NC3CC3)[C@@H]2c2ccc(CO)cc2)nc1
Marked response: -0.0892

Exam item: Tell me the measured composite z-score of O=C1c2ccccc2[C@@]2(Cc3ccccc3N(CC(F)(F)F)C2=O)[C@H](c2ccc(CO)cc2)N1Cc1ccccc1C(F)(F)F , please.
Marked response: -0.795

Exam item: Which composite z-score value is on record for C=CCNC(=O)[C@@H]1[C@H]2C(=O)O[C@H](c3ccccc3)[C@H](c3ccccc3)N2[C@H](c2ccc(O)cc2)[C@@]12C(=O)Nc1ccccc12 ?
Marked response: 0.394

Exam item: Name the reported composite z-score value associated with the compound O=C(O)[C@H]1C[C@H]2C(=O)NCC(=O)N2[C@H]1c1cccc(OCCO)c1
Marked response: 0.457

Exam item: Sample CCOC(=O)C[C@H]1[C@H](OC(=O)Cc2ccc3c(c2)OCO3)[C@@H](NC(=O)c2ccc3ccccc3c2)c2cc(OCCCO)ccc2N1C(=O)c1ccc2ccccc2n1 — what was its composite z-score?
Marked response: -0.339

Exam item: Requested field: composite z-score. Item: O=C(N1CCCCC1)[C@@]1(Cc2ccccc2)N=C(c2ccc(OCCCO)cc2)O[C@H]1c1ccccc1
Marked response: 1.42

Exam item: Report composite z-score for Cc1ccc(S[C@]2(C(=O)NC3CC3)CC(=O)N(Cc3ccccc3C(F)(F)F)[C@@H]2c2ccc(CO)cc2I)cc1 please.
Marked response: -0.0823

Exam item: // composite z-score lookup, key: CC(C)(C)OC(=O)CC[C@@]12N=C(c3ccc(OCCCO)cc3)O[C@@H]1c1ccccc1CN(Cc1ccccc1)C2=O
Marked response: 1.36

Exam item: Form field: reported composite z-score of C=CCN1C(=O)[C@]2(O[C@H](CCn3cc([C@H](O)c4ccccc4)nn3)[C@@H]([Si](C)(C)c3ccc(OC)cc3)[C@@H]2C)c2cc(N3CCOC3=O)ccc21
Marked response: 0.783

Exam item: For CC(C)(C)OC(=O)CC[C@]1(C(=O)NCc2ccccc2)COC(c2ccc(OCCCO)cc2)=N1 , what is its reported composite z-score?
Marked response: 0.444

Exam item: What does the data say about its composite z-score? Entry: C=CCC(OC(C)=O)[C@@H]1[C@@H](N(Cc2ccc(-c3cccc(C(F)(F)F)c3)o2)C(=O)c2ccc(-c3ccccc3)cc2)c2cc(OCCCO)ccc2N1C(=O)Cc1ccc(OC)cc1 (some centres not stated)
Marked response: -0.0642

Exam item: For C/C=C/[C@@H](CCn1cc(CCO[Si](C(C)C)(C(C)C)C(C)C)nn1)[Si](C)(C)c1ccc(OC)cc1 , what is its reported composite z-score?
Marked response: -0.168

Exam item: // query composite z-score value for entry NC(=O)NCC#Cc1ccc2c(c1)[C@]1(C(=O)N2)[C@H](c2ccc(OCCO)cc2)N2[C@H](c3ccccc3)[C@H](c3ccccc3)OC(=O)[C@H]2[C@@H]1C(=O)Nc1nc2ccccc2s1
Marked response: 0.0616

Exam item: So what's the measured composite z-score for this one? COCCCNC(=O)[C@@]1(C)c2ccccc2C(=O)N(Cc2cc(F)cc(C(F)(F)F)c2)[C@H]1c1ccc(CO)cc1
Marked response: -0.706

Exam item: # get_value(readout='composite z-score', item= COc1ccc([Si](C)(C)[C@H]2[C@H](CC(=O)N(CCO)Cc3ccccc3)O[C@@]3(C(=O)N(Cc4ccc(N5CCOC5=O)cc4)c4ccccc43)[C@@H]2C)cc1 )
Marked response: 0.16

====

- TEST DETAILS: MM1S myeloma cell viability, profiling panel, resazurin fluorescence, basal, 24 h, PK04 Diversity Set (AID 1174);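 further: MM1S multiple myeloma cell line; test concentration not given here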
- EXPERIMENTAL CONTEXT: higher = more signal, called active from +8 up or from −8 down
# z-score per entry
In your answer, state the number alone without any accompanying words.

Exam item: Need z-score, item COC(=O)c1c(CC[C@@H](CO)NC(=O)Nc2ccc(OC)cc2)oc(C(=O)Cc2ccccc2)c1C(=O)OC
Marked response: 0.955

Exam item: Data request, read-out z-score, for NCCCCCCNC(=O)[C@@H]1C[C@@H]2C(=O)N[C@@H](Cc3ccccc3)C(=O)N2[C@@H]1c1ccc(O)cc1
Marked response: 1.38

Exam item: Field request: z-score | item: [N-]=[N+]=Nc1ccccc1[C@H]1OC(c2ccc(OCCCO)cc2)=N[C@@]1(Cc1ccccc1)C(N)=O
Marked response: -1.29

Exam item: Look up z-score: C[C@@H](OCc1ccccc1)C1NC(=O)[C@@]23C(=O)N[C@@H](Cc4ccccc4)C2[C@H](C)[C@@]2(C)O[C@H]2C3/C=C/C/C=C\CNC(=O)[C@@H]2CCCN2C1=O (some centres not stated)
Marked response: 0.556

Next:
Exam item: For CC(C)NC(=O)[C@@H]1c2ccccc2C(=O)N(Cc2cc(F)cc(C(F)(F)F)c2)[C@H]1c1ccc(CO)cc1 , what is its reported z-score?
Marked response: 1.39

Exam item: Could you tell me which z-score is on file for CC(C)N1CC=CC23O[C@@H]4/C=C\CCCOC(=O)C4[C@H]2C(=O)N(CCCO)[C@@H]3C1=O (some centres not stated) ?
Marked response: 0.791

Exam item: Entry under review: C=C[C@H](OC)[C@@H](OC(=O)Nc1ccc(OC)cc1)c1ccc(OC)c(O)c1 . Reported z-score?
Marked response: 1.12
